# System: HEK293
# assay-details: Antiproliferative activity against HEK293 cells after 2 days by MTT assay
# Type: ADME, cell-based
# condition-set: Homo sapiens, HEK293, 48 h
reported-metric: pIC50
Numbers only, as −log10 of the molar value.

COc1cc2c(c(OC)c1OC)-c1ccc(OC)c(=O)cc1[C@@H](NC(=O)c1ccccc1Cl)CC2: 8.23
COc1cc2c(c(OC)c1OC)-c1ccc(OC)c(=O)cc1[C@@H](NC(=O)c1cccc(Br)c1)CC2: 8.96
COc1cc2c(c(OC)c1OC)-c1ccc(OC)c(=O)cc1[C@@H](NC(=O)c1cccc(C)c1)CC2: 8.51

// each molecule listed below needs its pIC50
1. COc1cc2c(c(OC)c1OC)-c1ccc(OC)c(=O)cc1[C@@H](NC(=O)c1cccc(Cl)c1)CC2
2. COc1cc2c(c(OC)c1OC)-c1ccc(OC)c(=O)cc1[C@@H](NC(=O)c1ccccc1)CC2
3. COc1cc2c(c(OC)c1OC)-c1ccc(OC)c(=O)cc1[C@@H](NC(=O)c1ccc(C)cc1)CC2
4. COc1cc2c(c(OC)c1OC)-c1ccc(OC)c(=O)cc1[C@@H](NC(=O)CI)CC2
5. COc1cc2c(c(OC)c1OC)-c1ccc(OC)c(=O)cc1[C@@H](NC(=O)c1ccccc1Br)CC2

1. 8.52
2. 7.89
3. 7.79
4. 7.72
5. 8.07

Each molecule below has a reported value. Please supply its pIC50.
1. COc1cc2c(c(OC)c1OC)-c1ccc(OC)c(=O)cc1[C@@H](NC(=O)c1ccc(Br)cc1)CC2
2. CCCCCc1ccc(C(=O)N[C@H]2CCc3cc(OC)c(OC)c(OC)c3-c3ccc(OC)c(=O)cc32)cc1

[8.11, 8.80]

---

# Test system: A549
# assay-details: Antiproliferative activity against human A549 cells after 2 days by MTT assay
# Format: functional, cell-based
# condition-set: A549, 48 h
reported-metric: pIC50
Answers are plain numbers, as −log10 of the molar value.

COc1cc2c(c(OC)c1OC)-c1ccc(OC)c(=O)cc1[C@@H](NC(=O)c1ccc(C)cc1)CC2: 8.06
COc1cc2c(c(OC)c1OC)-c1ccc(OC)c(=O)cc1[C@@H](NC(=O)c1cccc(C)c1)CC2: 8.06
COc1cc2c(c(OC)c1OC)-c1ccc(OC)c(=O)cc1[C@@H](NC(=O)c1ccc(Cl)cc1)CC2: 8.18
COc1cc2c(c(OC)c1OC)-c1ccc(OC)c(=O)cc1[C@@H](NC(C)=O)CC2: 7.91
COc1cc2c(c(OC)c1OC)-c1ccc(OC)c(=O)cc1[C@@H](NC(=O)c1cccc(Br)c1)CC2: 7.85

// input: 2 molecules below; output: pIC50 for each
1. COc1cc2c(c(OC)c1OC)-c1ccc(OC)c(=O)cc1[C@@H](NC(=O)c1ccccc1)CC2
2. COc1cc2c(c(OC)c1OC)-c1ccc(OC)c(=O)cc1[C@@H](NC(=O)CCl)CC2

1. 8.00
2. 7.91
